- Tested target: T1, recombinant human SOST (rhSOST) (human, UniProt Q9BQB4 24-213)
- T1 construct: Treated as one molecule; also called recombinant human SOST protein; human sclerostin
- T1 sequence: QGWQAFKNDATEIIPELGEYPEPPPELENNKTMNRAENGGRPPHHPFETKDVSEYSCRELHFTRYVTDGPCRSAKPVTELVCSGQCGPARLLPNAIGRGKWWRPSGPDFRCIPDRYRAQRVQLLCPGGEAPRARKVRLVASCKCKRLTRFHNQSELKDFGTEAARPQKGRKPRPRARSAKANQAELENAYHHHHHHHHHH
- Test summary: SPR Biacore T200, IgG captured via anti-human Fc, rhSOST analyte, 37 C
Listed below: pKd values for each entry.
# log scale: pKd equals minus log10 of the concentration in mol/L

Binder	pKd
DM32 (antibody, V domains shown, also called mH11/mL2) VH: EVQLLESGGGLVQPGGSLRLSCAASGFTFSDYWMQWVRQAPGKGLEWVGAIYPGDGDTRYNQKFKDRFTISRDNSKNTLYLQMNSLRAEDTAVYYCARSMDYWGQGTLVTVSS VL: DIVMTQSPDSLAVSLGERATINCRASKTVDSYGNSFMHWFQQKPGQPPKLLIYHSSNLESGVPDRFSGSGSGTDFTLTISSLQAEDVAVYYCLQTIEDPYTFGQGTKLEIK	10.27
DM15 (antibody, V domains shown, also called wt/mL4) VH: EVQLLESGGGLVQPGGSLRLSCAASGHTFTDYWMQWVRQAPGKGLEWIGAIYPGDGDTRYNQKFKDRFTISRDNSKNTLYLQMNSLRAEDTAVYYCARSMDYWGQGTLVTVSS VL: DIVMTQSPDSLAVSLGERATINCRASKTVDSYGNSFMHWFQQKPGQPPKLLIHHSSNLESGVPDRFSGSGSGTDFTLTISSLQAEDVAVYYCLQTIEHPYTFGQGTKLEIK	10.10
DP99 (antibody, V domains shown, also called pH99/pL99) VH: EVMLAESGGGLVQPGGSLQLSCAASGFTFSIYAMSWVRQTPEKRLEWVATISGGDTYTYYADSVKGRFTISRDNAKNTLYLHMTGLRSEDTALYYCARHGYDDFDYWGLGTTLTVSS VL: DVVLTQIPLTLSVTIGQPATISCKSSQSLLDNDGETYLNWLLVRPGQSPKRLIYQVSKLDSGFPERFTGGGSGTDFTLKISRVEAEDLGIYYCWQGTHFPHTFGGGTKLEIK	9.99

Kindly consider the entry below.
**Query** Query (binder): DM17 (antibody, V domains shown, also called wt/mL6) VH: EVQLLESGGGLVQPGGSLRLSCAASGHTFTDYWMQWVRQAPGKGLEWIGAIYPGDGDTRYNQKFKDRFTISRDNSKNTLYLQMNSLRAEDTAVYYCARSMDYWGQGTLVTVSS VL: DIVMTQSPDSLAVSLGERATINCRASKTVDSYGNSFMHWFQQKPGQPPKLLIHHSSNLESGVPDRFSGSGSGTDFTLTISSLQAEDVAVYYCLQTIEDSYTFGQGTKLEIK ; field requested: pKd
**Result** 10.36
